target: NPY1R (Homo sapiens); construct: purchased Promega (in-house HiBiT-GPCR construct library, NanoBRET); experiment: NanoBRET screen HiBiT-NPY1R in HEK293; assay type: binding; details: NPY1R; tracer 0.1μM
Sequence (P25929 whole entry): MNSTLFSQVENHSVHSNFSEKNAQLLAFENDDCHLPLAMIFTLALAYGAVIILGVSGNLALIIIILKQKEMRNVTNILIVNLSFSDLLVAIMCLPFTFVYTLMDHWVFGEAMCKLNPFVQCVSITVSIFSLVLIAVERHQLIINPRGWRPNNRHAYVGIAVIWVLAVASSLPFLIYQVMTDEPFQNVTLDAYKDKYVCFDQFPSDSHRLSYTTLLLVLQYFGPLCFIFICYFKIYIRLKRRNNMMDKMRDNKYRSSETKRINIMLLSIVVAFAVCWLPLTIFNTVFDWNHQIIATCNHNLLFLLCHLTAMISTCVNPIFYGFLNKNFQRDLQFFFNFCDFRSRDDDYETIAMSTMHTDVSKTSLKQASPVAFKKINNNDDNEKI
Mark 1.0 only for NanoBRET Fold Response values smaller than 1; exact matches and larger values are 0.0.

Query block: Lab log: compare recorded NanoBRET Fold Response with 1; is it strictly lower for CC(C)N(CC[C@H](c1ccccc1)c1cc(CCNC(=O)CCOCCOCCOCCOCCNC(=O)CCc2ccc3n2[B-](F)(F)[N+]2=C(c4ccc[nH]4)C=CC2=C3)ccc1O)C(C)C ?
Result block: 0.0

Query block: Lab log: compare recorded NanoBRET Fold Response with 1; is it strictly lower for O=C(CCc1ccc2n1[B-](F)(F)[N+]1=C(c3ccc[nH]3)C=CC1=C2)NCc1ccc(C(=O)NCCOCCC(=O)N[C@@H]2CC[C@@]3(O)[C@H]4Cc5ccc(O)c6c5[C@@]3(CCN4CC3CC3)[C@H]2O6)cc1 [Naltrexone-3-NB590] ?
Result block: 1.0

Query block: Lab log: compare recorded NanoBRET Fold Response with 1; is it strictly lower for O=C(CCc1ccc2n1[B-](F)(F)[N+]1=C(c3ccc[nH]3)C=CC1=C2)NCCOCCOCCNC(=O)OCCOCCN1CCN(C2=Nc3ccccc3Sc3ccccc32)CC1 ?
Result block: 0.0

Query block: Lab log: compare recorded NanoBRET Fold Response with 1; is it strictly lower for CC(C)N(CC[C@H](c1ccccc1)c1cc(CCNC(=O)c2ccc(CNC(=O)CCc3ccc4n3[B-](F)(F)[N+]3=C(c5ccc[nH]5)C=CC3=C4)cc2)ccc1O)C(C)C ?
Result block: 0.0

***
Query block: Lab log: compare recorded NanoBRET Fold Response with 1; is it strictly lower for COc1ccccc1N1CCN(CCCCN2C(=O)c3ccc(CNC(=O)CCOCCNC(=O)c4ccc(CNC(=O)CCc5ccc6n5[B-](F)(F)[N+]5=C(c7ccc[nH]7)C=CC5=C6)cc4)cc3C2=O)CC1 ?
Result block: 1.0

Query block: Lab log: compare recorded NanoBRET Fold Response with 1; is it strictly lower for O=C(CCOCCOCCOCCOCCNC(=O)CCc1ccc2n1[B-](F)(F)[N+]1=C(c3ccc[nH]3)C=CC1=C2)NCCCN1CCN(C2=Nc3ccccc3Oc3ccc(Cl)cc32)CC1 ?
Result block: 1.0

Query block: Lab log: compare recorded NanoBRET Fold Response with 1; is it strictly lower for Cc1nc2n(c(=O)c1CCN1CCC(c3noc4cc(F)ccc34)CC1)CCCC2OC(=O)NCCOCCOCCOCCOCCNC(=O)CCc1ccc2n1[B-](F)(F)[N+]1=C(c3ccc[nH]3)C=CC1=C2 (centres unmarked) ?
Result block: 1.0

====

target: CHRM4 (Homo sapiens, UniProt P08173); construct: purchased Promega (in-house HiBiT-GPCR construct library, NanoBRET); experiment: NanoBRET screen HiBiT-CHRM4 in HEK293; format: binding; conditions: CHRM4; tracer 1μM
Sequence (P08173 whole entry): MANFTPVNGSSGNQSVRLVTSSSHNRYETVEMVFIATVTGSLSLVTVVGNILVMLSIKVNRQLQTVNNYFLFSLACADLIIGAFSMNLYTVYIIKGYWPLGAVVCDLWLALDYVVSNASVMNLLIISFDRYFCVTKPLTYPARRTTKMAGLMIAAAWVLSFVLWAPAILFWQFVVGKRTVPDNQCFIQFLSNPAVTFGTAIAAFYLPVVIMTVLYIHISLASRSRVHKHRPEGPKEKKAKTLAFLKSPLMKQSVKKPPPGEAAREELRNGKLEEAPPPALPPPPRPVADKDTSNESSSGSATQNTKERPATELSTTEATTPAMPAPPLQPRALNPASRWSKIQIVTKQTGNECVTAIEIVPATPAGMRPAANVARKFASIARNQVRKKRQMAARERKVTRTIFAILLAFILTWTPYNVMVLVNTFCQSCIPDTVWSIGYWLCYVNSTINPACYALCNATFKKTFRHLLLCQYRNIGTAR
Overview of reported NanoBRET Fold Response across a group of compounds:
Lab note: jot down the number only; don't add units.

Check out these entries, answers already filled in.
Noted NanoBRET Fold Response for O=C(CCc1ccc2n1[B-](F)(F)[N+]1=C(c3ccc[nH]3)C=CC1=C2)NCc1ccc(C(=O)NCCOCCC(=O)N[C@@H]2CC[C@@]3(O)[C@H]4Cc5ccc(O)c6c5[C@@]3(CCN4CC3CC3)[C@H]2O6)cc1 [Naltrexone-3-NB590] , tested on CHRM4 (Homo sapiens, UniProt P08173): 0.79

Noted NanoBRET Fold Response for O=C(CCOCCOCCOCCOCCNC(=O)CCc1ccc2n1[B-](F)(F)[N+]1=C(c3ccc[nH]3)C=CC1=C2)NCCCN1CCN(C2=Nc3ccccc3Oc3ccc(Cl)cc32)CC1 [Loxapine-a-2-NB590] , tested on CHRM4 (Homo sapiens, UniProt P08173): 1.18

Noted NanoBRET Fold Response for COc1ccccc1N1CCN(CCCCN2C(=O)c3ccc(CNC(=O)CCOCCOCCOCCOCCNC(=O)CCc4ccc5n4[B-](F)(F)[N+]4=C(c6ccc[nH]6)C=CC4=C5)cc3C2=O)CC1 [NAN-190-2-NB590] , tested on CHRM4 (Homo sapiens, UniProt P08173): 1.17

Noted NanoBRET Fold Response for N#CN=C(NCCCOc1cccc(CN2CCCCC2)c1)NCCNC(=O)CCOCCOCCOCCOCCNC(=O)CCc1ccc2n1[B-](F)(F)[N+]1=C(c3ccc[nH]3)C=CC1=C2 [Aminopotentidine-2-NB590] , tested on CHRM4 (Homo sapiens, UniProt P08173): 1.39

Noted NanoBRET Fold Response for CC(C)N(CC[C@H](c1ccccc1)c1cc(CCNC(=O)c2ccc(CNC(=O)CCc3ccc4n3[B-](F)(F)[N+]3=C(c5ccc[nH]5)C=CC3=C4)cc2)ccc1O)C(C)C [Tolterodine-BZ-NB590] , tested on CHRM4 (Homo sapiens, UniProt P08173): 2.39

Noted NanoBRET Fold Response for O=C(CCc1ccc2n1[B-](F)(F)[N+]1=C(c3ccc[nH]3)C=CC1=C2)NCCOCCOCCNC(=O)OCCOCCN1CCN(C2=Nc3ccccc3Sc3ccccc32)CC1 [Quetiapine-a-2-NB590] , tested on CHRM4 (Homo sapiens, UniProt P08173): 2.06

Noted NanoBRET Fold Response for CC(C)N(CC[C@H](c1ccccc1)c1cc(CCNC(=O)CCOCCOCCOCCOCCNC(=O)CCc2ccc3n2[B-](F)(F)[N+]2=C(c4ccc[nH]4)C=CC2=C3)ccc1O)C(C)C [Tolterodine-2-NB590] , tested on CHRM4 (Homo sapiens, UniProt P08173): 1.53

Noted NanoBRET Fold Response for CCCn1c(=O)c2[nH]c(-c3ccc(OCC(=O)NCCNC(=O)CCOCCNC(=O)c4ccc(CNC(=O)CCc5ccc6n5[B-](F)(F)[N+]5=C(c7ccc[nH]7)C=CC5=C6)cc4)cc3)nc2n(CCC)c1=O [XAC-3-NB590] , tested on CHRM4 (Homo sapiens, UniProt P08173): 1.10

***
Noted NanoBRET Fold Response for Cc1cc2c(s1)Nc1ccccc1N=C2N1CCN(CCCNC(=O)CCOCCOCCOCCOCCNC(=O)CCc2ccc3n2[B-](F)(F)[N+]2=C(c4ccc[nH]4)C=CC2=C3)CC1 [Olanzapine-a-2-NB590] , tested on CHRM4 (Homo sapiens, UniProt P08173): 1.23

Noted NanoBRET Fold Response for Cc1nc2n(c(=O)c1CCN1CCC(c3noc4cc(F)ccc34)CC1)CCCC2OC(=O)NCCOCCOCCOCCOCCNC(=O)CCc1ccc2n1[B-](F)(F)[N+]1=C(c3ccc[nH]3)C=CC1=C2 (centres unmarked) [Risperidone-2-NB590] , tested on CHRM4 (Homo sapiens, UniProt P08173): 1.67

Noted NanoBRET Fold Response for COc1ccccc1N1CCN(CCCCN2C(=O)c3ccc(CNC(=O)CCOCCNC(=O)c4ccc(CNC(=O)CCc5ccc6n5[B-](F)(F)[N+]5=C(c7ccc[nH]7)C=CC5=C6)cc4)cc3C2=O)CC1 [NAN-190-3-NB590] , tested on CHRM4 (Homo sapiens, UniProt P08173): 0.66

====

target: SSTR3 (Homo sapiens, UniProt P32745); construct: purchased Promega (in-house HiBiT-GPCR construct library, NanoBRET); experiment: NanoBRET screen HiBiT-SSTR3 in HEK293; format: binding; conditions: SSTR3; tracer 1μM
Sequence (P32745 whole entry): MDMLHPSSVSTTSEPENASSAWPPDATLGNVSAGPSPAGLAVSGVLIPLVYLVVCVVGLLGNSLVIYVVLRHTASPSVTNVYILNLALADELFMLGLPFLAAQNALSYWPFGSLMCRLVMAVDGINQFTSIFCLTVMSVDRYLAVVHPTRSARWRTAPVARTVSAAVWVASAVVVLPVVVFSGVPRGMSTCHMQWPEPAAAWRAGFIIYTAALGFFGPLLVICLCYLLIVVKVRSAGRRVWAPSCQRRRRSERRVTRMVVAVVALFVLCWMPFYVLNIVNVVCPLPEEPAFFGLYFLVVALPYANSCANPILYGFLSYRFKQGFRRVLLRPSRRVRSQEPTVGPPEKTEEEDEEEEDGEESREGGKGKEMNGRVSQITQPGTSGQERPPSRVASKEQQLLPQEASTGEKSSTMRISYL
OBSERVED_PROPERTY: NanoBRET Fold Response

Reported NanoBRET Fold Response ( N#CN=C(NCCCOc1cccc(CN2CCCCC2)c1)NCCNC(=O)CCOCCOCCOCCOCCNC(=O)CCc1ccc2n1[B-](F)(F)[N+]1=C(c3ccc[nH]3)C=CC1=C2 [Aminopotentidine-2-NB590] ) = 0.99

Reported NanoBRET Fold Response ( COc1ccccc1N1CCN(CCCCN2C(=O)c3ccc(CNC(=O)CCOCCOCCOCCOCCNC(=O)CCc4ccc5n4[B-](F)(F)[N+]4=C(c6ccc[nH]6)C=CC4=C5)cc3C2=O)CC1 [NAN-190-2-NB590] ) = 1.05

Reported NanoBRET Fold Response ( CC(C)N(CC[C@H](c1ccccc1)c1cc(CCNC(=O)CCOCCOCCOCCOCCNC(=O)CCc2ccc3n2[B-](F)(F)[N+]2=C(c4ccc[nH]4)C=CC2=C3)ccc1O)C(C)C [Tolterodine-2-NB590] ) = 1.17

====

Target: PTGER1 (Homo sapiens)
Construct: purchased Promega (in-house HiBiT-GPCR construct library, NanoBRET)
Sequence (P34995 1-402): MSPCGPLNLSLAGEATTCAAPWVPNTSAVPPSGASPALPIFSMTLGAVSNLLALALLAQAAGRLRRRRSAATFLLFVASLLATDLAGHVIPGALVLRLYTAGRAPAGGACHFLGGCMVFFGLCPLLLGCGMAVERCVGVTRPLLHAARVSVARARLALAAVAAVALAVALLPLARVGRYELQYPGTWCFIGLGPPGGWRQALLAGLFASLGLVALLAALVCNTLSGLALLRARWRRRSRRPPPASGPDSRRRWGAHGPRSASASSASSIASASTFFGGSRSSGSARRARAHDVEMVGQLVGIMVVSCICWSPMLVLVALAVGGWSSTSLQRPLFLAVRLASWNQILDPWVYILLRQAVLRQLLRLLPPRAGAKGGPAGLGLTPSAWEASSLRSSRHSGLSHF
Test: NanoBRET screen HiBiT-PTGER1 in HEK293
Format: binding
Details: PTGER1; tracer 1μM
OBSERVED_PROPERTY: NanoBRET Fold Response
Lab note: jot down the number only; don't add units.

Check out these entries, answers already filled in.
Reported NanoBRET Fold Response ( CCCn1c(=O)c2[nH]c(-c3ccc(OCC(=O)NCCNC(=O)CCOCCNC(=O)c4ccc(CNC(=O)CCc5ccc6n5[B-](F)(F)[N+]5=C(c7ccc[nH]7)C=CC5=C6)cc4)cc3)nc2n(CCC)c1=O [XAC-3-NB590] ) = 1.16

Reported NanoBRET Fold Response ( O=C(CCOCCOCCOCCOCCNC(=O)CCc1ccc2n1[B-](F)(F)[N+]1=C(c3ccc[nH]3)C=CC1=C2)NCCCN1CCN(C2=Nc3ccccc3Oc3ccc(Cl)cc32)CC1 [Loxapine-a-2-NB590] ) = 1.08

Reported NanoBRET Fold Response ( COc1ccccc1N1CCN(CCCCN2C(=O)c3ccc(CNC(=O)CCOCCOCCOCCOCCNC(=O)CCc4ccc5n4[B-](F)(F)[N+]4=C(c6ccc[nH]6)C=CC4=C5)cc3C2=O)CC1 [NAN-190-2-NB590] ) = 1.04

Reported NanoBRET Fold Response ( N#CN=C(NCCCOc1cccc(CN2CCCCC2)c1)NCCNC(=O)CCOCCOCCOCCOCCNC(=O)CCc1ccc2n1[B-](F)(F)[N+]1=C(c3ccc[nH]3)C=CC1=C2 [Aminopotentidine-2-NB590] ) = 0.95

Reported NanoBRET Fold Response ( O=C(CCc1ccc2n1[B-](F)(F)[N+]1=C(c3ccc[nH]3)C=CC1=C2)NCCOCCOCCNC(=O)OCCOCCN1CCN(C2=Nc3ccccc3Sc3ccccc32)CC1 [Quetiapine-a-2-NB590] ) = 1.05

Now consider the entry below.
Reported NanoBRET Fold Response ( O=C(CCc1ccc2n1[B-](F)(F)[N+]1=C(c3ccc[nH]3)C=CC1=C2)NCc1ccc(C(=O)NCCOCCC(=O)N[C@@H]2CC[C@@]3(O)[C@H]4Cc5ccc(O)c6c5[C@@]3(CCN4CC3CC3)[C@H]2O6)cc1 [Naltrexone-3-NB590] ) = 1.02
